The origin of these recorded values is the supplement of paper PMC10567573.

B1: NCF4 (parent)
chain: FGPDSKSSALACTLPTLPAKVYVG

Variants of: B1
Assay: protein stability index of a GFP-peptide fusion (GPS, HEK-293T) (PSI 1-6); higher = more stable;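 note: lentivirally expressed fusions sorted by FACS into six bins by GFP to DsRed ratio, PSI derived from sequencing read proportions per bin multiplied by bin number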
Conditions: c terminus: a fixed tail appended
Each entry below carries its reported protein stability index.
REPORTED_ENDPOINT: protein stability index

{"columns": ["MUTATION_STRING", "VALUE"],
 "data": [
  ["S5C", 1.8],
  ["S8L", 1.98],
  ["T13N", 2.9],
  ["F1D", 3.56],
  ["S8I", 2.44],
  ["L17Y", 1.54],
  ["V23P", 2.77],
  ["K20I", 2.76],
  ["G24M", 1.63],
  ["P18C", 1.52],
  ["P18R", 1.61]
]}
